Target: Aurora A (Homo sapiens, UniProt O14965)
Construct: cell lysates from Jurkat cells (ATCC TIB-152) used; endogenous in cells
Experiment: Kinobeads assay, Aurora A
Conditions: lysate of pervanadate-treated Jurkat cells, read-out: Inhibition values (IC50) Aur A
Description: The compounds of the present invention as described in the previous examples were tested in a Kinobeads™ assay as described for ZAP-70 (WO-A 2007/137867). […] Bound proteins were then eluted and the presence of JAK2 and JAK3 was detected and quantified using specific antibodies in a dot blot procedure and the Odyssey infrared detection system. Dose response curves for individual kinases were generated and IC50 values calculated. […]
pIC50: −log10 of the molar value.
Item-by-item account of pIC50

As a guide, the following entries are already answered.
O=C(CCn1cc(Nc2ncc3cnn(Cc4cccc(N5CCOCC5)c4)c3n2)cn1)N1CCCCC1 ... 6.00 to 7.00
Cn1cc(Nc2ncc3cnn(Cc4cccc(N5CCOCC5=O)c4F)c3n2)cn1 ... 6.00 to 7.00
Cn1cc(Nc2ncc3cnn(Cc4cccc(C(=O)N5CCOCC5)c4)c3n2)cn1 ... 6.00 to 7.00

--- query ---
Task item: Give the measured pIC50 of `CN(C)CCCn1cc(Nc2ncc3cnn(Cc4cccc(N5CCOCC5)c4F)c3n2)cn1` .
Reply: 5.00 to 6.00

----------
The following compounds are listed with their measured pIC50 values.
Target: Aurora A (Homo sapiens, UniProt O14965)
Construct: cell lysates from Jurkat cells (ATCC TIB-152) used; endogenous in cells
Sequence (O14965 1-403): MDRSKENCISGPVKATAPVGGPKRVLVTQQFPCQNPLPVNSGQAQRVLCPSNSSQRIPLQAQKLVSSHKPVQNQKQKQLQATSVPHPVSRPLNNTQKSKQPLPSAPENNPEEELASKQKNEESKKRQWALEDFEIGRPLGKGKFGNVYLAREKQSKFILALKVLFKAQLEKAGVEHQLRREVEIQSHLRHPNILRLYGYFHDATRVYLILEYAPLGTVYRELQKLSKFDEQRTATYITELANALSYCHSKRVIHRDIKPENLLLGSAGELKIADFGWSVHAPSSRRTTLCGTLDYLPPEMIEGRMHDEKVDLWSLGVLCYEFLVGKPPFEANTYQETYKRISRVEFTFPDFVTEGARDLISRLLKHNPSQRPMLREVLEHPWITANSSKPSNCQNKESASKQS
Assay: Kinobeads assay, Aurora A
Conditions: lysate of pervanadate-treated Jurkat cells, read-out: Inhibition values (IC50) Aur A
pIC50: −log10 of the molar value.

O=C1CNCCN1c1cc(F)cc(Cn2ncc3cnc(Nc4cnn(CCO)c4)nc32)c1 ... 6.00 to 7.00
FC(F)Cn1cc(Nc2ncc3cnn(Cc4cccc(N5CCOCC5)c4)c3n2)cn1 ... 6.00 to 7.00

Task item: Suppose we examine the compound `Cn1cc(Nc2ncc3cnn(Cc4cccc(N5CCOCC5)c4Cl)c3n2)cn1` ; what pIC50 value has been reported?
Reply: > 7.00

Task item: Now the compound `Cn1cc(Nc2ncc3cnn(Cc4cc(F)cc(N5CCOCC5=O)c4F)c3n2)cn1`
Reply: 6.00 to 7.00

Task item: Do the same for `Cn1cc(Nc2ncc3cnn(Cc4cccc(N5CCNCC5=O)c4F)c3n2)cn1` please
Reply: 6.00 to 7.00

Task item: Record: `Cn1cc(Nc2ncc3cnn(Cc4cccc(-c5cnn(CC(N)=O)c5)c4)c3n2)cn1`
Reply: 6.00 to 7.00

Task item: Follow-up entry: `COC1CN(c2cccc(Cn3ncc4cnc(Nc5cnn(C)c5)nc43)c2)C1`
Reply: 5.00 to 6.00

Task item: One more compound: `CN1CCN(c2cccc(Cn3ncc4cnc(Nc5cnn(C)c5)nc43)c2)CC1`
Reply: 6.00 to 7.00

Task item: Now the same for `Cn1cc(Nc2ncc3cnn(Cc4cccc(N5CCOCC5)c4)c3n2)cn1`
Reply: 6.00 to 7.00

----------
Molecular target: JAK2 (Homo sapiens)
Construct: endogenous in cells
Experiment: Kinobeads assay, JAK2
Details: mixed Molt4/Ramos lysate, read-out: Inhibition values (IC50) JAK2
pIC50: −log10 of the molar value.
readoutKind: pIC50

Below, each entry is followed by its recorded pIC50 result.
c1cc(Cn2ncc3cnc(Nc4cnn(CC5CCNC5)c4)nc32)cc(N2CCOCC2)c1 (centres unmarked) [Example 60] ... 5.00 to 6.00
Cn1cc(Nc2ncc3cnn(Cc4cc(F)cc(C(=O)N5CCNCC5)c4)c3n2)cn1 [Example 80] ... 5.00 to 6.00
CC(CN(C)C)Cn1cc(Nc2ncc3cnn(Cc4cccc(N5CCOCC5)c4)c3n2)cn1 (centres unmarked) [Example 32] ... ≤ 5.00

Task item: Form: Entry = OCCn1cc(Nc2ncc3cnn(Cc4cc(F)cc(N5CCOCC5)c4)c3n2)cn1 [Example 51] | System = JAK2 (Homo sapiens) | pIC50 = ____
Reply: 5.00 to 6.00

Task item: Follow-up item: O=C1COCCN1c1cc(F)c(F)c(Cn2ncc3cnc(Nc4cnn(CCO)c4)nc32)c1 [Example 59]
Reply: ≤ 5.00

Task item: Try this compound too: CN(C)CCCn1cc(Nc2ncc3cnn(Cc4cccc(N5CCOCC5)c4F)c3n2)cn1 [Example 43]
Reply: 5.00 to 6.00

Task item: What do you get for CN(C)CCCn1cc(Nc2ncc3cnn(Cc4cccc(N5CCOCC5)c4)c3n2)cn1 [Example 4] ?
Reply: 5.00 to 6.00

Task item: Then what about the compound OCCn1cc(Nc2ncc3cnn(Cc4cccc(N5CCOCC5)c4)c3n2)cn1 [Example 5] ?
Reply: ≤ 5.00

----------
Target: JAK2 (Homo sapiens, UniProt O60674)
Construct: endogenous in cells
Sequence (O60674 whole entry): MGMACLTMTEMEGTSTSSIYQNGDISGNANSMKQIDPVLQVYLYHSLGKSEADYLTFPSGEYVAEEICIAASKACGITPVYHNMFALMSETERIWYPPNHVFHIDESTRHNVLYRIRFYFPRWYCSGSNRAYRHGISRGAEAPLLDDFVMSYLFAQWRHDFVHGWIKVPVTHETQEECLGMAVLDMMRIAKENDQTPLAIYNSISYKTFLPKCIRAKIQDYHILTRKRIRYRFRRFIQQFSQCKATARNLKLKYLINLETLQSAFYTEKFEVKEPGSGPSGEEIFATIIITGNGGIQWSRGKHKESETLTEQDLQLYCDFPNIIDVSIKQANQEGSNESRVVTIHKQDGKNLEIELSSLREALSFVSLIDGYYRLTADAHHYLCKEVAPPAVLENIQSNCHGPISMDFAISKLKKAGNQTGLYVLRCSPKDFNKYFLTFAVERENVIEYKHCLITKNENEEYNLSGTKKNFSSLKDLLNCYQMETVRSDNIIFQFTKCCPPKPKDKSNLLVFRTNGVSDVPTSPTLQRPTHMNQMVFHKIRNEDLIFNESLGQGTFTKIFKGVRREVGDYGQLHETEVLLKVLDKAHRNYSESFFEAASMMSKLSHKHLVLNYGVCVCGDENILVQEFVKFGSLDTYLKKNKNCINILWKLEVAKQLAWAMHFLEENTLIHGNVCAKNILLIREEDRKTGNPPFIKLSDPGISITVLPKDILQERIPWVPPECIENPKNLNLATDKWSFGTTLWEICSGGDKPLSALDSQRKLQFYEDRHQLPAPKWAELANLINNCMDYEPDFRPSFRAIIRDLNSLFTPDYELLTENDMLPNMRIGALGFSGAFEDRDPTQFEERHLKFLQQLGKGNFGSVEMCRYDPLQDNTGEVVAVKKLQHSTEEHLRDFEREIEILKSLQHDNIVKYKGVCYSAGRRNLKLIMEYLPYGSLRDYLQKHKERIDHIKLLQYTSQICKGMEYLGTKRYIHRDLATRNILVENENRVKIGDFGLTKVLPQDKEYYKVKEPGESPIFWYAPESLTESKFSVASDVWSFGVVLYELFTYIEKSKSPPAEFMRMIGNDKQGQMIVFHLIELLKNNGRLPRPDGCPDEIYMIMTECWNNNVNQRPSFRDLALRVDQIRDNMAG
Test: Kinobeads assay, JAK2
Conditions: mixed Molt4/Ramos lysate, read-out: Inhibition values (IC50) JAK2
readoutKind: IC50

Cn1cc(Nc2ncc3cnn(Cc4cccc(N5CCOCC5O)c4)c3n2)cn1 (stereo not shown) ... ≥ 10 µM
Cc1c(Cn2ncc3cnc(Nc4cnn(C)c4)nc32)cccc1N1CCOCC1 ... ≥ 10 µM

Task item: Could you share which IC50 value was measured for `C[C@@H]1COCCN1c1cccc(Cn2ncc3cnc(Nc4cnn(C)c4)nc32)c1` ?
Reply: ≥ 10 µM

Task item: Cool, now `CN(C)CCCn1cc(Nc2ncc3cnn(Cc4c(F)ccc(N5CCOCC5=O)c4F)c3n2)cn1`
Reply: 1 to 10 µM

----------
Recorded IC50 for the following compounds
Molecular target: Aurora A (Homo sapiens)
Construct: cell lysates from Jurkat cells (ATCC TIB-152) used; endogenous in cells
Sequence (O14965 1-403): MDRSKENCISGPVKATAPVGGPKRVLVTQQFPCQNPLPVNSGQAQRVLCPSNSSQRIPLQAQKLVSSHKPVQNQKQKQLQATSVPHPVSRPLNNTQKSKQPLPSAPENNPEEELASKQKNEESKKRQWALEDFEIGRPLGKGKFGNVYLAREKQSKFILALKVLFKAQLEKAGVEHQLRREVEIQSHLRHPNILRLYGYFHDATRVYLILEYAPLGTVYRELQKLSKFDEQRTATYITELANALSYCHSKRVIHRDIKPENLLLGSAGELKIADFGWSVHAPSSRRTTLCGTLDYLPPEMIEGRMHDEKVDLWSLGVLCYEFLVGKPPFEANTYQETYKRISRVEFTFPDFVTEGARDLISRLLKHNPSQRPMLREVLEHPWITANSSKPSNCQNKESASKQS
Assay: Kinobeads assay, Aurora A
Details: lysate of pervanadate-treated Jurkat cells, read-out: Inhibition values (IC50) Aur A

Guide cases for IC50, answers given:
CN(C)CCCn1cc(Nc2ncc3cnn(Cc4c(F)c(F)cc(N5CCOCC5=O)c4F)c3n2)cn1 [Example 70] ... 1000 to 10000 nM
O=C1COCCN1c1cccc(Cn2ncc3cnc(Nc4cnn(CCO)c4)nc32)c1F [Example 46] ... 100 to 1000 nM
c1cc(Cn2ncc3cnc(Nc4cnn(CC5CCNC5)c4)nc32)cc(N2CCOCC2)c1 (centres unmarked) [Example 60] ... 1000 to 10000 nM
COC1CCN(c2cccc(Cn3ncc4cnc(Nc5cnn(C)c5)nc43)c2)CC1 [Example 77] ... 100 to 1000 nM
CCOC(=O)C1CCCN(c2cccc(Cn3ncc4cnc(Nc5cnn(C)c5)nc43)c2)C1 (centres unmarked) [Example 13] ... 1000 to 10000 nM

Task item: Entry Cn1cc(Nc2ncc3cnn(Cc4c(F)c(F)cc(C(=O)N5CCOCC5)c4F)c3n2)cn1 [Example 110] has what IC50?
Reply: 1000 to 10000 nM

----------
Reported pIC50 values are given for each entry in this list.
Biological target: JAK2 (Homo sapiens)
Construct: endogenous in cells
Experiment: Kinobeads assay, JAK2
Conditions: mixed Molt4/Ramos lysate, read-out: Inhibition values (IC50) JAK2
pIC50: −log10 of the molar value.

Cn1cc(Nc2ncc3cnn(Cc4c(F)c(F)cc(N5CCOCC5)c4F)c3n2)cn1 [Example 17] ... 5.00 to 6.00
NC(=O)CCn1cc(Nc2ncc3cnn(Cc4cccc(N5CCOCC5)c4)c3n2)cn1 [Example 14] ... ≤ 5.00
Cn1cc(Nc2ncc3cnn(Cc4cc(F)cc(C(=O)N5CCOCC5)c4)c3n2)cn1 [Example 79] ... 6.00 to 7.00
CN(C)CCCn1cc(Nc2ncc3cnn(Cc4c(F)c(F)cc(N5CCOCC5=O)c4F)c3n2)cn1 [Example 70] ... 5.00 to 6.00

Continue with the compound presented below.
Task item: State its pIC50 on JAK2 (Homo sapiens): Cn1cc(Nc2ncc3cnn(Cc4cccc(-c5cnn(C)c5)c4)c3n2)cn1 [Example 115]
Reply: 5.00 to 6.00
